Recorded values, source PubChem BioAssay (NCI).

- Tested on: K-562 leukemia
- experimental.details: NCI-60 one-dose screen, 48 h (100 = growth as untreated, 0 = no growth, -100 = all killed)
- experimental.conditions: 10 µM unless noted
This is part of a sample that, as a whole, favours compounds with a hit. Of some 83,000 tested, about 20% had one in any assay. Activity calls are given as the source filed them. The calls were made as follows: active = growth percent below 10; inactive = the rest.
# growth annotations

O=C(CN1C(=O)NC2NC(=O)NC21)N/N=C/c1ccc(Cl)cc1Cl (stereo not given)	105% (inactive)

Lookup result for C=C1C(=O)O[C@H]2[C@H]1CC/C(COC(=O)/C=C\C(=O)NCc1ccc(Cn3c(=O)sn(-c4ccccc4)c3=O)cc1)=C\CC[C@@]1(C)O[C@@H]21 ; measured growth: 16.2% (inactive)

// field: growth; key: COc1ccc(-c2ccc(=O)oc2C#Cc2cc(OC)c(OC)c(OC)c2)cc1O ; value = 0.484% (active)

Sample Cc1ccc(C)c2c1C(O)(C#Cc1ccccc1)c1ccccc1C2(O)C#Cc1ccccc1 (stereo not given) ; growth observed: 22.2% (inactive)

The compound listed as COc1cc2nc(Nc3cccc(F)c3)nc(Nc3cc(C)[nH]n3)c2cc1OC shows growth equal to -31.1% [20 µM] (active)

// recorded growth for CC(C)CCSc1nc(Nc2ccccc2)c(C#N)c(-c2ccccc2)n1 : 48.6% (inactive)

Recorded result, O=C1CC2C=CCN2C=C1NC(=O)C1CCCCC1 (stereo not given) , growth: 99.9% (inactive)

Record C[C@@H](CO)[C@@H]1CC[C@]2(C(=O)N3CCN(C)CC3)CC[C@]3(C)[C@H](CC[C@@H]4[C@@]5(C)CC[C@H](O)C(C)(C)[C@@H]5CC[C@]43C)[C@@H]12 . Reported growth: 4.66% (active)

Record summary for CCn1cc(C(=O)N/N=C/c2ccc(Br)cc2)c(=O)c2cc(F)c(N3CCNC(C)C3)c(F)c21 (stereo not given) : reported growth = -12.6% (active)

In plain terms, Cc1cc2nc3c4ccccc4n(CCN(C)C)c3nc2cc1C has a documented growth of 8.35% (active)

So for COc1ccc(C(O)c2cc3c(N)c(C(=O)Nc4cccc(Cl)c4)sc3nc2C)cc1 (stereo not given) , the logged growth turned out to be 10.7% (inactive)

get_value(item= COc1ccc(C2=CN3CC=CCC3CC2=O)cc1 (stereo not given) , readout=growth) returns 105% (inactive)
